Molecular target: AGT-Mi (Homo sapiens, UniProt P21549, G350D/I340M/P11L)
Sequence (P21549 whole entry P11L/I340M/G350D): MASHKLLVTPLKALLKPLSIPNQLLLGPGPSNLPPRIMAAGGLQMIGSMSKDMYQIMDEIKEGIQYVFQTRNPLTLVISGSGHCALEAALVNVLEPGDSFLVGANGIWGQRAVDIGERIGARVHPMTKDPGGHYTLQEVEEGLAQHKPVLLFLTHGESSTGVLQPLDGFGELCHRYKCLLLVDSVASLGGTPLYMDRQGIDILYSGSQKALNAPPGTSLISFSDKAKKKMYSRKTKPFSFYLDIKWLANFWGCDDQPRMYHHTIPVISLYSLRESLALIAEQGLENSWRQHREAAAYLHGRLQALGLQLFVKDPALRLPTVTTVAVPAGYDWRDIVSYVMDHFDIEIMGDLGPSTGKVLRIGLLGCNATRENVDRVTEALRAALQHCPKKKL
Assay: quenching of intrinsic fluorescence of apoenzyme
MEASURE NAME: Kd (nM)
Reply with just the number (in nM).

The compound Cc1ncc(COP(=O)(O)O)c(C=O)c1O showed Kd equal to 31
